Test system: HT29 (colorectal carcinoma)
Experiment: Cancer screening, MTT growth inhibition
Format: cell-based
Details: Homo sapiens, HT-29, 25 µM of drug, 72 h, read-out: DOSE SCREEN percentage (%) cell growth inhibition HT29 Colon
Answer each item with its documented inhibition at 25 µM.

QUERY: # query: inhibition at 25 µM of entry OB(O)c1cccc(CN2C[C@@H](O)[C@H]3OC(O)[C@H](O)[C@H]32)c1 (stereo partly drawn)
RESULT: < 0%

QUERY: # query: inhibition at 25 µM of entry `OC[C@H](O)[C@@H]1[C@H](O)[C@H](O)CN1Cc1ccccc1B(O)O`
RESULT: < 0%

QUERY: # query: inhibition at 25 µM of entry `CC1(C)O[C@H]2O[C@H]3[C@@H]([C@H]2O1)N(Cc1cccc(B(O)O)c1)C[C@H]3O`
RESULT: < 0%

---

Molecular target: α-D-glucosidase (rice) (Oryza sativa subsp. japonica, UniProt Q653V7)
Sequence (Q653V7 34-885): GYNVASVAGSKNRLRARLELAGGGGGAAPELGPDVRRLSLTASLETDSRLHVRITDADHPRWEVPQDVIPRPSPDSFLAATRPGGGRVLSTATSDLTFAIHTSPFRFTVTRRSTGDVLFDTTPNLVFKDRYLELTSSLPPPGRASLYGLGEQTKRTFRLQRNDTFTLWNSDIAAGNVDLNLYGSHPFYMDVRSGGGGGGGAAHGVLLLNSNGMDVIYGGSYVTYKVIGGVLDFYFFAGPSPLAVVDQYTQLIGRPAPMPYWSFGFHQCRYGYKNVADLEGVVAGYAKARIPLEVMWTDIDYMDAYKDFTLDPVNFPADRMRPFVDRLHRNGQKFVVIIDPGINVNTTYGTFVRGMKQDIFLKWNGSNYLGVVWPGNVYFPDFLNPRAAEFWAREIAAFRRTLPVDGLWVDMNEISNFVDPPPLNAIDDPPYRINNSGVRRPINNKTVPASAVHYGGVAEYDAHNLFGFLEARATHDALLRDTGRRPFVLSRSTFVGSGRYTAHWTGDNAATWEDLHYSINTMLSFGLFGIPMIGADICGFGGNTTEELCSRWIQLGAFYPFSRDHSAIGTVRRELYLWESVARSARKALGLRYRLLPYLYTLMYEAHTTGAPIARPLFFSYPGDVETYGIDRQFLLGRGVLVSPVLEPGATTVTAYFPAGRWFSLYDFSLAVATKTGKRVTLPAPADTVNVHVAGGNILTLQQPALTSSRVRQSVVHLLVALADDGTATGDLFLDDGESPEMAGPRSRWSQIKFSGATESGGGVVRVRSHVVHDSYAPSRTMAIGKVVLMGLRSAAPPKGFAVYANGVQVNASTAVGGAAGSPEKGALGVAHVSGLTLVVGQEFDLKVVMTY
Assay: Glycosidase inhibition (Table 2 panel)
Type: biochemical
Conditions: at 100 μM
assayEndpoint: inhibition at 100 µM (%)
Give the number; % is assumed, so skip it.

QUERY: # query: inhibition at 100 µM of entry CC1(C)O[C@H]2O[C@H]3[C@@H]([C@H]2O1)N(Cc1cccc(O)c1)C[C@H]3O [meta 6]
RESULT: 0

QUERY: # query: inhibition at 100 µM of entry OB(O)c1cccc(CN2C[C@@H](O)[C@H]3OC(O)[C@H](O)[C@H]32)c1 (some centres unmarked) [meta 3]
RESULT: 0

QUERY: # query: inhibition at 100 µM of entry OC[C@H](O)[C@@H]1[C@H](O)[C@H](O)CN1Cc1cccc(B(O)O)c1 [meta 4]
RESULT: 8

QUERY: # query: inhibition at 100 µM of entry CC1(C)O[C@H]2O[C@H]3[C@@H]([C@H]2O1)N(Cc1cccc(B2OC(C)(C)C(C)(C)O2)c1)C[C@H]3O [meta 2]
RESULT: 0

QUERY: # query: inhibition at 100 µM of entry CC1(C)O[C@H]2O[C@H]3[C@@H]([C@H]2O1)N(Cc1ccccc1B1OC(C)(C)C(C)(C)O1)C[C@H]3O [ortho 2]
RESULT: 0
